src = paper PMC9116130

molecular target: hNaV1.5 (Homo sapiens, UniProt Q14524); experiment: Two-electrode voltage-clamp on Xenopus laevis oocytes expressing NaV1.5; conditions: read-out: Maximum % inhibition NaV1.5
Sequence (Q14524 whole entry): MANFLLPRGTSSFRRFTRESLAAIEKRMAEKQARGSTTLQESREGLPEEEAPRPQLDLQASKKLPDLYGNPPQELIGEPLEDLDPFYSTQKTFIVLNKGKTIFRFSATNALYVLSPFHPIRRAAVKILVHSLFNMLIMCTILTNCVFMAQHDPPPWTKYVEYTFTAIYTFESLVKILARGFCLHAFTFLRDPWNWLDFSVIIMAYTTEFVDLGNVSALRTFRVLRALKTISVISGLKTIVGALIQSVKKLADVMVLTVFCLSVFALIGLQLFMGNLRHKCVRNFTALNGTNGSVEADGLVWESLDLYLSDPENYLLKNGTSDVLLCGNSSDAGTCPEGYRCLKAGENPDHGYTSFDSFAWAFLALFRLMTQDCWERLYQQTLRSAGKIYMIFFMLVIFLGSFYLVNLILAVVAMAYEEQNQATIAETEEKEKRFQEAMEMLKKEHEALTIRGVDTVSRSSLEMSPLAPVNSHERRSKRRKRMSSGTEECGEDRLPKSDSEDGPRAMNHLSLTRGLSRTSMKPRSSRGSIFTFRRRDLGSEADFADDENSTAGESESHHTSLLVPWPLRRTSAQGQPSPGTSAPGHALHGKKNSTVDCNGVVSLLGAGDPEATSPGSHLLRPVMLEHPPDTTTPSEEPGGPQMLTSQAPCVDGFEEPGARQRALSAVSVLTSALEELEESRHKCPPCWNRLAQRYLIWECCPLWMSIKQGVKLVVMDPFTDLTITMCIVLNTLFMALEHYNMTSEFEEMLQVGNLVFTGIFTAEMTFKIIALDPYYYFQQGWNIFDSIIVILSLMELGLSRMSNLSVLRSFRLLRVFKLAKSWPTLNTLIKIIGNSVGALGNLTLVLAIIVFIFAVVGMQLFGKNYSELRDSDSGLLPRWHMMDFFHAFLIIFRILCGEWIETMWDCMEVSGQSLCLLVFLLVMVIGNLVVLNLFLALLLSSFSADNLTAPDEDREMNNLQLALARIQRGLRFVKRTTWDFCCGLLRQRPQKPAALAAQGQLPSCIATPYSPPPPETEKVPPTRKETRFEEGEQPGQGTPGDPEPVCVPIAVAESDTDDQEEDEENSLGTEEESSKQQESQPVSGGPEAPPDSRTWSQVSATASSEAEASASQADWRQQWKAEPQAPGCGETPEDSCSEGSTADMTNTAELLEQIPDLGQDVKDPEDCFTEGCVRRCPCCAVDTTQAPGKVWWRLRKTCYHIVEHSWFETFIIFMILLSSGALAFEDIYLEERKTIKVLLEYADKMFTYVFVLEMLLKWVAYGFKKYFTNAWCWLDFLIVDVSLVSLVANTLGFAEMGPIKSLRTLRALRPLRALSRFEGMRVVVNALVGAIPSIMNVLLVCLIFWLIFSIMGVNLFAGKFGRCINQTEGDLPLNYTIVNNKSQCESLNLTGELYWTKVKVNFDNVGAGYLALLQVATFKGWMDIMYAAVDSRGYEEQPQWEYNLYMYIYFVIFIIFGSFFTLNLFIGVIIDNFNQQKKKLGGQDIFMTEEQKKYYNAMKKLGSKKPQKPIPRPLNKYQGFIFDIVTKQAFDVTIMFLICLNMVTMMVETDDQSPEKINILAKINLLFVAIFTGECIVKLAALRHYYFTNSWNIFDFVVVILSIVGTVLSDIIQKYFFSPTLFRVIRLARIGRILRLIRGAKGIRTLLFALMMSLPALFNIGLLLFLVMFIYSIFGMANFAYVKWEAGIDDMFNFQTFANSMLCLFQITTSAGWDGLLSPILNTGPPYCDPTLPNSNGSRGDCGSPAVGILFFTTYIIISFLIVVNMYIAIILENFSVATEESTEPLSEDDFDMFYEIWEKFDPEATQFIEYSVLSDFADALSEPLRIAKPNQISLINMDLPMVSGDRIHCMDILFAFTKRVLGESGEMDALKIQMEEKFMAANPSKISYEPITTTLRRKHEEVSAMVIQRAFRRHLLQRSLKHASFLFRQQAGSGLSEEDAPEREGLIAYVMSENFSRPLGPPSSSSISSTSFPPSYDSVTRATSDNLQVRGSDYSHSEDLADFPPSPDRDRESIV
Where a SMILES comes first, the peptide text is derived from it. Bridges are numbered along the chain shown (N, C = ends).
inhibition at 100 µM values by entry
Provide the reading as a plain figure in %.

Recorded results for 5 molecules are shown here.
[[record]]
molecule = "N=C(N)NCCC[C@@H]1NC(=O)[C@H](CC(N)=O)NC(=O)[C@H](Cc2c[nH]c3ccccc23)NC(=O)[C@H](CCCNC(=N)N)NC(=O)[C@H](CCCCN)NC(=O)[C@H](Cc2c[nH]c3ccccc23)NC(=O)[C@H](CCCNC(=N)N)NC(=O)[C@H](CCCNC(=N)N)NC(=O)[C@@H](N)CSSC[C@@H](C(N)=O)NC1=O [PnCS1[A5K], CRRWKRWNRC ^*] (H-CRRWKRWNRC-NH2; disulfide 1-10)"
observable = "inhibition at 100 µM"
observed = 92

[[record]]
molecule = "C[C@@H]1NC(=O)[C@H](Cc2c[nH]c3ccccc23)NC(=O)[C@H](CCCNC(=N)N)NC(=O)[C@H](CCCNC(=N)N)NC(=O)[C@@H](N)CSSC[C@@H](C(N)=O)NC(=O)[C@H](CCCCN)NC(=O)[C@H](CC(N)=O)NC(=O)[C@H](Cc2c[nH]c3ccccc23)NC(=O)[C@H](CCCNC(=N)N)NC1=O [PnCS1[R9K], CRRWARWNKC ^*] (H-CRRWARWNKC-NH2; disulfide 1-10)"
observable = "inhibition at 100 µM"
observed = 67

[[record]]
molecule = "C[C@@H]1NC(=O)[C@H](Cc2c[nH]c3ccccc23)NC(=O)[C@H](CCC(=O)O)NC(=O)[C@H](CCCNC(=N)N)NC(=O)[C@@H](N)CSSC[C@@H](C(N)=O)NC(=O)[C@H](CCCNC(=N)N)NC(=O)[C@H](CC(N)=O)NC(=O)[C@H](Cc2c[nH]c3ccccc23)NC(=O)[C@H](CCCNC(=N)N)NC1=O [PnCS1[R3E], CREWARWNRC ^*] (H-CREWARWNRC-NH2; disulfide 1-10)"
observable = "inhibition at 100 µM"
observed = 21

[[record]]
molecule = "C[C@@H]1NC(=O)[C@H](CCC(=O)O)NC(=O)[C@H](CCCNC(=N)N)NC(=O)[C@H](CCCNC(=N)N)NC(=O)[C@@H](N)CSSC[C@@H](C(N)=O)NC(=O)[C@H](CCCNC(=N)N)NC(=O)[C@H](CC(N)=O)NC(=O)[C@H](Cc2c[nH]c3ccccc23)NC(=O)[C@H](CCCNC(=N)N)NC1=O [PnCS1[W4E], CRREARWNRC ^*] (H-CRREARWNRC-NH2; disulfide 1-10)"
observable = "inhibition at 100 µM"
observed = 34

[[record]]
molecule = "C[C@@H]1NC(=O)[C@H](Cc2c[nH]c3ccccc23)NC(=O)[C@H](C)NC(=O)[C@H](CCCNC(=N)N)NC(=O)[C@@H](N)CSSC[C@@H](C(N)=O)NC(=O)[C@H](CCCNC(=N)N)NC(=O)[C@H](CC(N)=O)NC(=O)[C@H](Cc2c[nH]c3ccccc23)NC(=O)[C@H](CCCNC(=N)N)NC1=O [PnCS1[R3A], CRAWARWNRC ^*] (H-CRAWARWNRC-NH2; disulfide 1-10)"
observable = "inhibition at 100 µM"
observed = 51


Lookup result for C[C@@H]1NC(=O)[C@H](C)NC(=O)[C@H](Cc2c[nH]c3ccccc23)NC(=O)[C@H](CCCNC(=N)N)NC(=O)[C@H](CCCNC(=N)N)NC(=O)[C@@H](N)CSSC[C@@H](C(N)=O)NC(=O)[C@H](CCCNC(=N)N)NC(=O)[C@H](CC(N)=O)NC(=O)[C@H](Cc2c[nH]c3ccccc23)NC1=O [PnCS1[R6A], CRRWAAWNRC ^*] (H-CRRWAAWNRC-NH2; disulfide 1-10) ; measured inhibition at 100 µM: 78

Lookup result for C[C@@H]1NC(=O)[C@H](Cc2c[nH]c3ccccc23)NC(=O)[C@H](CCCNC(=N)N)NC(=O)[C@H](CCCNC(=N)N)NC(=O)[C@@H](N)CSSC[C@@H](C(N)=O)NC(=O)[C@H](CCCNC(=N)N)NC(=O)[C@H](CC(N)=O)NC(=O)[C@H](CCCCN)NC(=O)[C@H](CCCNC(=N)N)NC1=O [PnCS1[W7K], CRRWARKNRC ^*] (H-CRRWARKNRC-NH2; disulfide 1-10) ; measured inhibition at 100 µM: 90

Lookup result for C[C@@H]1NC(=O)[C@H](Cc2c[nH]c3ccccc23)NC(=O)[C@H](CCCNC(=N)N)NC(=O)[C@H](CCCNC(=N)N)NC(=O)[C@@H](N)CSSC[C@@H](C(N)=O)NC(=O)[C@H](CCCNC(=N)N)NC(=O)[C@H](CCCCN)NC(=O)[C@H](Cc2c[nH]c3ccccc23)NC(=O)[C@H](CCCNC(=N)N)NC1=O [PnCS1[N8K], CRRWARWKRC ^*] (H-CRRWARWKRC-NH2; disulfide 1-10) ; measured inhibition at 100 µM: 86
